Biological target: C-C chemokine receptor type 2 (Homo sapiens, UniProt P41597)
Sequence (P41597 whole entry): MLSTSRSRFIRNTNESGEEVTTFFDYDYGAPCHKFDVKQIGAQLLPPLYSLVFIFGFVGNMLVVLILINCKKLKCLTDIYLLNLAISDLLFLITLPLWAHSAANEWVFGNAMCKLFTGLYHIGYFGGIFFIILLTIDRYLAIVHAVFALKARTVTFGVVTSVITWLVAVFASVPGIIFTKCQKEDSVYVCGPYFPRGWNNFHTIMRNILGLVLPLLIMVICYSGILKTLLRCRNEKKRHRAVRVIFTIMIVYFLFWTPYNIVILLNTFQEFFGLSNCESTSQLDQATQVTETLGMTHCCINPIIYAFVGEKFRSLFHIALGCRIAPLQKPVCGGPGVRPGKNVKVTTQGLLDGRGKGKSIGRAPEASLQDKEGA
Assay: Binding affinity at human CCR2 receptor

# COMPOUND, IC50
measured = [
    ("O=C(/C=C/c1cc(F)c(F)c(F)c1)N1CCC([C@H](CO)N2CCC(c3c[nH]c4ccccc34)CC2)CC1", "10 nM"),
    ("O=C(O)c1ccc2[nH]cc(C3CCN(C(CO)C4CCN(C(=O)Nc5ccc(Cl)c(Cl)c5)CC4)CC3)c2c1 (stereo not drawn)", "10 nM"),
    ("Nc1ccc2[nH]cc(C3CCN(C(CO)C4CCN(C(=O)/C=C/c5cc(F)c(F)c(F)c5)CC4)CC3)c2c1 (stereo not drawn)", "1 nM"),
]
